testTarget: T1, human CHI3L1/YKL-40 (human, UniProt P36222 22-383)
T1 construct: also called human YKL-40
T1 sequence (P36222 22-383 limits assumed): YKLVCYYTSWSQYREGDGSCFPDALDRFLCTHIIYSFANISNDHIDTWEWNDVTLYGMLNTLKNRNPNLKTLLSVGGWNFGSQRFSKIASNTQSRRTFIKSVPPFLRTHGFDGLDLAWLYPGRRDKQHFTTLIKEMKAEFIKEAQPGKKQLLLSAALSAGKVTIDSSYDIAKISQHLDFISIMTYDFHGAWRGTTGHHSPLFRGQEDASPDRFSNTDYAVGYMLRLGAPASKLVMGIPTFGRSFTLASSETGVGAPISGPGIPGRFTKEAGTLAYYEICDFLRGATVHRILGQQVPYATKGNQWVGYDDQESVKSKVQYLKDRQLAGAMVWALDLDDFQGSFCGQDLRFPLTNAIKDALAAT
assayRemarks: titration ELISA against human YKL-40
valueKind: binding result

Past entries and their recorded results:
{"binder": "H1-L1 (humanized anti-YKL-40 antibody) (antibody, V domains shown, Humanized, kappa light chain, human IgG (detected with goat anti-human IgG-HRP; the PK assay uses an anti-IgG1 capture antibody); also called anti-YKL-40 H1-L1) VH: QIQLVQSGSELKKPGASVKISCKASGYTFTNYGMNWVRQAPGQGLEWMGWINTYTGEPTYADDFKGRFVFSLDTSVSTAYLQISSLKAEDTSVYFCARLGYGKFYVMDYWGQGTSVTVSS VL: DVVMTQSPLSLPVTLGQPASISCRSSQSLVHSNGNTYLNWYQQRPGQSPRLLIYKVSNRFSGVPDRFSGSGSGTDFTLKISRVEAEDVGVYFCSQSTHVTWTFGGGTKLEIK", "binding result": "binds"}
{"binder": "H11-L1 (humanized anti-YKL-40 antibody) (antibody, V domains shown, Humanized, human IgG) VH: QIQLVQSGPEVKQPGASVKISCKASGYTFTNYGMNWVKQAPGQGLKWMGWINTYTGEPTYAQGFTGRFVFSLDTSASTAYLQISSLKAEDMSTYFCARLGYGKFYVMDYWGQGTSVTVSS VL: DVVMTQSPLSLPVTLGQPASISCRSSQSLVHSNGNTYLNWYQQRPGQSPRLLIYKVSNRFSGVPDRFSGSGSGTDFTLKISRVEAEDVGVYFCSQSTHVTWTFGGGTKLEIK", "binding result": "binds"}
{"binder": "H4-L1 (humanized anti-YKL-40 antibody) (antibody, V domains shown, Humanized, human IgG (detected with goat anti-human IgG-HRP)) VH: QIQLVQSGSELKKPGASVKISCKASGYTFTNYGMNWVRQAPGQGLKWMGWINTYTGEPTYADDFKGRFVFSLDTSVSTAYLQISSLKAEDTSVYFCARLGYGKFYVMDYWGQGTSVTVSS VL: DVVMTQSPLSLPVTLGQPASISCRSSQSLVHSNGNTYLNWYQQRPGQSPRLLIYKVSNRFSGVPDRFSGSGSGTDFTLKISRVEAEDVGVYFCSQSTHVTWTFGGGTKLEIK", "binding result": "binds"}
{"binder": "H11-L5 (humanized anti-YKL-40 antibody) (antibody, V domains shown, Humanized variant) VH: QIQLVQSGPEVKQPGASVKISCKASGYTFTNYGMNWVKQAPGQGLKWMGWINTYTGEPTYAQGFTGRFVFSLDTSASTAYLQISSLKAEDMSTYFCARLGYGKFYVMDYWGQGTSVTVSS VL: DIVMTQTPLSLSVTPGQPASISCKSSQSLVHSNGNTYLHWYLQKPGQSPQLLIYKVSNRFSGVPDRFSGSGSGTDFTLKISRVEAEDVGVYYCSQSTHVTWTFGGGTKLEIK", "binding result": "binds"}
{"binder": "H12-L8 (humanized anti-YKL-40 antibody) (antibody, V domains shown, Humanized variant) VH: QIQLVQSGPEVKQPGASVKISCKASGYSFTTYGMNWVKQAPGQGLEWMGWINTYTGEPTYADDFKGRFVFSLDTSASTAYLQISSLKAEDMSTYFCARLGYGKFYVMDYWGQGTSVTVSS VL: DVVMTQSPLSLPVTLGQPASISCRSSQSLVHSNGNTYLHWYQQRPGQSPRLLIYKVSNRFSGVPDRFSGSGSGTDFTLKISRVEAEDVGVYYCSQSTHVTWTFGGGTKLEIK", "binding result": "binds"}

Consider the additional binder presented here.
Which binding result value belongs to H2-L1 (humanized anti-YKL-40 antibody) (antibody, V domains shown, Humanized variant) VH: QIQLVQSGSELKKPGASVKISCKASGYTFTNYGMNWVRQAPGQGLEWMGWINTYTGEPTYAQGFTGRFVFSLDTSVSTAYLQISSLKAEDTSVYFCARLGYGKFYVMDYWGQGTSVTVSS VL: DVVMTQSPLSLPVTLGQPASISCRSSQSLVHSNGNTYLNWYQQRPGQSPRLLIYKVSNRFSGVPDRFSGSGSGTDFTLKISRVEAEDVGVYFCSQSTHVTWTFGGGTKLEIK ?
binds
